# systemTested: T1, human MSLN-R3 protein (human, UniProt Q13421 487-598)
# T1 construct: also called hMSLN-R3
# T1 sequence (Q13421 495-606, form in doubt): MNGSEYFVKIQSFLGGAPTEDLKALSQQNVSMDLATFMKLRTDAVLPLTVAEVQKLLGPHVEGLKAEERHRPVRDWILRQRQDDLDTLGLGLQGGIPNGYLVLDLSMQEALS
# measurementDescription: ELISA on coated antigen, antibody 1 nM
measurementKind: OD450 (OD450)
Output spec: scalar in OD450, unitless text.

Here's what some known entries look like.
binder: F7.44.20 (scFv, not shown: small tags and cut ends, also called S009-F7.44.20 (parental variable regions, in the humanized-antibody ELISA)) scFv: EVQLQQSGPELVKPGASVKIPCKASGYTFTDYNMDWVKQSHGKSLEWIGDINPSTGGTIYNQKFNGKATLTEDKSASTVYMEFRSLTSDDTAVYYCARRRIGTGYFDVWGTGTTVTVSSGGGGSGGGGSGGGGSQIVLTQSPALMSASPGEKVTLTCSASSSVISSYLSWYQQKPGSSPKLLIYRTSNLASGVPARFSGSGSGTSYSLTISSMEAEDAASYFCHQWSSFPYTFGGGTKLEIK
OD450 / OD450: 0.39
//
binder: F7.44.20-H9 (scFv, not shown: small tags and cut ends, also called S009-F7.44.20 humanized antibody VH2 + VL1) scFv: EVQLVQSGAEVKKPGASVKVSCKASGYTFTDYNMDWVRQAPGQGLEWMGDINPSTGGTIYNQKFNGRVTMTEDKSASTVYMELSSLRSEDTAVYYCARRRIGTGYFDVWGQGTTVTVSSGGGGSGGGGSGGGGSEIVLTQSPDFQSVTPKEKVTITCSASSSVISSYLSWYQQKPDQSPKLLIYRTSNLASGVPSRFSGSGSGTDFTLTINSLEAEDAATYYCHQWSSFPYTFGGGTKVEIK
OD450 / OD450: 0.72
//
binder: F7.44.20-H15 (scFv, not shown: small tags and cut ends, also called S009-F7.44.20 humanized antibody VH2a + VL3) scFv: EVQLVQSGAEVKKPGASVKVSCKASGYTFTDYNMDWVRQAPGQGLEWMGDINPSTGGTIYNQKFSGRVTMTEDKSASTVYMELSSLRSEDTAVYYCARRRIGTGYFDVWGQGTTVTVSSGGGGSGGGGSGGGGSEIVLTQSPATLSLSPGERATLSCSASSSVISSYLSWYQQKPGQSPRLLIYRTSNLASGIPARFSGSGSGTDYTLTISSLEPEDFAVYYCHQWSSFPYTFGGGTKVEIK
OD450 / OD450: 0.77
//
binder: F7.44.20-H10 (scFv, not shown: small tags and cut ends, also called S009-F7.44.20 humanized antibody VH2 + VL2) scFv: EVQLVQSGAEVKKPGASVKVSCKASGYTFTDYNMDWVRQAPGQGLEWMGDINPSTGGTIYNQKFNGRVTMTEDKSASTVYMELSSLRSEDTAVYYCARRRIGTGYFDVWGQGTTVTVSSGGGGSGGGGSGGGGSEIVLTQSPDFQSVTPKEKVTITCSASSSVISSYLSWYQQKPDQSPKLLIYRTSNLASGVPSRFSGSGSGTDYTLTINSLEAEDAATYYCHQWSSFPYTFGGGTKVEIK
OD450 / OD450: 0.81

Pending binder:
Item F7.44.20-H2 (scFv, not shown: small tags and cut ends, also called S009-F7.44.20 humanized antibody VH1 + VL2) scFv: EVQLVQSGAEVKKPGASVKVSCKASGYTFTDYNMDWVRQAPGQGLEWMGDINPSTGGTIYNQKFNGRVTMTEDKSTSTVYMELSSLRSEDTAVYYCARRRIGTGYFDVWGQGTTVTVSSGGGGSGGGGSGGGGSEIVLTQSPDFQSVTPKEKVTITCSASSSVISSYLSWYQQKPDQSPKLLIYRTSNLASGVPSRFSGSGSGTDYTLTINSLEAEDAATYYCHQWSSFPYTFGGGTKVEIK has what recorded OD450?
0.95
